B1: glmS ribozyme (parent)
chain: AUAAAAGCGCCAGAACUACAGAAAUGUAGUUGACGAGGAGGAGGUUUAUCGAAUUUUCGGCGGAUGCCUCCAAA

Variants of: B1
Test: self-cleavage kobs at 10000 uM GlcN6P; higher = faster cleavage; RNA array
Conditions: with glucosamine-6-phosphate
This sample holds only a part of the variants without activity.
Entries and their self-cleavage kobs at 10000 uM GlcN6P

{"MUTATION_LIST": "C16A G60U", "SIGN_QUALIFIER": "<", "self-cleavage kobs at 10000 uM GlcN6P / s⁻¹": "1e-05"}
{"MUTATION_LIST": "U54G C67A", "SIGN_QUALIFIER": "=", "self-cleavage kobs at 10000 uM GlcN6P / s⁻¹": 0.00623}
{"MUTATION_LIST": "U30A A36U C71A", "SIGN_QUALIFIER": "<", "self-cleavage kobs at 10000 uM GlcN6P / s⁻¹": "1e-05"}
{"MUTATION_LIST": "G32U C34A G37U", "SIGN_QUALIFIER": "<", "self-cleavage kobs at 10000 uM GlcN6P / s⁻¹": "1e-05"}
{"MUTATION_LIST": "G44C U45A U46G", "SIGN_QUALIFIER": "=", "self-cleavage kobs at 10000 uM GlcN6P / s⁻¹": "3.99e-05"}
{"MUTATION_LIST": "U54G G66U C68U", "SIGN_QUALIFIER": "=", "self-cleavage kobs at 10000 uM GlcN6P / s⁻¹": 0.000154}
{"MUTATION_LIST": "A12U U49G", "SIGN_QUALIFIER": "=", "self-cleavage kobs at 10000 uM GlcN6P / s⁻¹": 0.00167}
{"MUTATION_LIST": "A12U C58A", "SIGN_QUALIFIER": "=", "self-cleavage kobs at 10000 uM GlcN6P / s⁻¹": 0.00051}
{"MUTATION_LIST": "G41U A53G C68U", "SIGN_QUALIFIER": "=", "self-cleavage kobs at 10000 uM GlcN6P / s⁻¹": "4.96e-05"}
{"MUTATION_LIST": "C8U A48C", "SIGN_QUALIFIER": "<", "self-cleavage kobs at 10000 uM GlcN6P / s⁻¹": "1e-05"}
{"MUTATION_LIST": "A39U G41C", "SIGN_QUALIFIER": "=", "self-cleavage kobs at 10000 uM GlcN6P / s⁻¹": "1.93e-05"}
{"MUTATION_LIST": "G40C C67A C71A", "SIGN_QUALIFIER": "=", "self-cleavage kobs at 10000 uM GlcN6P / s⁻¹": 0.000726}
{"MUTATION_LIST": "C16U G38U A52C C58A", "SIGN_QUALIFIER": "<", "self-cleavage kobs at 10000 uM GlcN6P / s⁻¹": "1e-05"}
{"MUTATION_LIST": "C50A C58G", "SIGN_QUALIFIER": "<", "self-cleavage kobs at 10000 uM GlcN6P / s⁻¹": "1e-05"}
{"MUTATION_LIST": "U55G G62C", "SIGN_QUALIFIER": "<", "self-cleavage kobs at 10000 uM GlcN6P / s⁻¹": "1e-05"}
{"MUTATION_LIST": "G9C A53G", "SIGN_QUALIFIER": "<", "self-cleavage kobs at 10000 uM GlcN6P / s⁻¹": "1e-05"}
{"MUTATION_LIST": "C16A U30C", "SIGN_QUALIFIER": "=", "self-cleavage kobs at 10000 uM GlcN6P / s⁻¹": "2.12e-05"}
{"MUTATION_LIST": "G38C G43U", "SIGN_QUALIFIER": "<", "self-cleavage kobs at 10000 uM GlcN6P / s⁻¹": "1e-05"}
{"MUTATION_LIST": "G9A G13C U45G U57A", "SIGN_QUALIFIER": "<", "self-cleavage kobs at 10000 uM GlcN6P / s⁻¹": "1e-05"}
{"MUTATION_LIST": "A14U A53U", "SIGN_QUALIFIER": "=", "self-cleavage kobs at 10000 uM GlcN6P / s⁻¹": 0.00654}
{"MUTATION_LIST": "G40U U49A", "SIGN_QUALIFIER": "<", "self-cleavage kobs at 10000 uM GlcN6P / s⁻¹": "1e-05"}
{"MUTATION_LIST": "A12C A42G", "SIGN_QUALIFIER": "=", "self-cleavage kobs at 10000 uM GlcN6P / s⁻¹": 0.0248}
